- Tested on: HOP-62 multicell spheroids with HUVEC/MSC, viability
- assayText: Anticancer human tumor HOP-62 cell line growth inhibition [KRAS2]; active means viability on the fitted dose curve at most 10% of control; inactive means the rest;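 further: viability read after a week of compound exposure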
- recordedConditions: second compound 3.16 µM; first compound 0.0316 µM
Outcomes: active, inactive

- molecule: "CC(=O)Nc1cccc(-n2c(=O)n(C3CC3)c(=O)c3c(Nc4ccc(I)cc4F)n(C)c(=O)c(C)c32)c1 + C=CC(=O)N1CCN(c2nc(OCC3CCCN3C)nc3c2CCN(c2cccc4cccc(C)c24)C3)CC1CC#N"
  class: "active"
- molecule: "CN(C)C/C=C/C(=O)Nc1cc2c(Nc3ccc(F)c(Cl)c3)ncnc2cc1O[C@H]1CCOC1 + CC1OCC2(CCN(c3cnc(Sc4ccnc(N)c4Cl)c(N)n3)CC2)C1N"
  class: "inactive"
- molecule: "CC1(C)CCC(CN2CCN(c3ccc(C(=O)NS(=O)(=O)c4ccc(NCC5CCOCC5)c([N+](=O)[O-])c4)c(Oc4cnc5[nH]ccc5c4)c3)CC2)=C(c2ccc(Cl)cc2)C1 + CNCc1ccccc1-c1csc(C(C)Nc2nc(C)nc3cc(OC)c(OC)cc23)c1"
  class: "inactive"
- molecule: "CN(C)C/C=C/C(=O)Nc1cc2c(Nc3ccc(F)c(Cl)c3)ncnc2cc1O[C@H]1CCOC1 + C=CC(=O)N1CCN(c2nc(=O)n(-c3c(C)ccnc3C(C)C)c3nc(-c4c(O)cccc4F)c(F)cc23)C(C)C1"
  class: "inactive"
- molecule: "Cn1ncnc1[C@H]1c2n[nH]c(=O)c3cc(F)cc(c23)N[C@@H]1c1ccc(F)cc1 + CNCc1ccccc1-c1csc(C(C)Nc2nc(C)nc3cc(OC)c(OC)cc23)c1"
  class: "active"
- molecule: "Cn1nccc1Nc1nccc(-c2cc3c(s2)C(C)(C)N(CCN2CCOCC2)C3=O)n1 + C=CC(=O)N1CCN(c2nc(=O)n(-c3c(C)ccnc3C(C)C)c3nc(-c4c(O)cccc4F)c(F)cc23)C(C)C1"
  class: "inactive"
- molecule: "Cn1nccc1Nc1nccc(-c2cc3c(s2)C(C)(C)N(CCN2CCOCC2)C3=O)n1 + CNCc1ccccc1-c1csc(C(C)Nc2nc(C)nc3cc(OC)c(OC)cc23)c1"
  class: "active"
